Source: the EternaBench riboswitch data

Reported apparent Kd values for a set of sequences
system: MS2 coat protein; experiment: apparent Kd, MS2 coat protein; higher = weaker binding; RNA-MaP array; tryptophan 2.4 mM where present; conditions: designed as: OFF switch for tryptophan; no ligand
RECORDED METRIC: apparent Kd

# SEQUENCE CONTENT, RECORDED METRIC, MEASURED
data = [
    ("GAAUAAGAAUCGGCCGCCACUCACAUGAGGAUCACCCAUGUACAUGAGGAACAUGAAAAUCACCCGAGGACCGGGAUAUAUGUUC", "apparent Kd", "0.07 µM"),
    ("UAUCGUCAGACGGCCGCCACUAGAACAUGAGGAUCACCCAUGUAGGUCCUAGAUUCCUCAAUAACUAGGACCGGGUCUGACGAAU", "apparent Kd", "0.14 µM"),
    ("ACUACAAAGUAGUAUAUACGAAAGUAUAGACGAGGACCGGUACGGCCGCCACUCGGUACCGGAAACACAUGAGGAUCACCCAUGU", "apparent Kd", "0.0206 µM"),
    ("CGAGUGCUGUCGGCCGCCACUGCACAUGAGGAUCACCCAUGUAAAAGCUGGCUGUGACUGGUGUUCAGGACCGGGACAGGGUCUU", "apparent Kd", "0.0107 µM"),
    ("AUAACGAGUGGUGGAAUACAUGGGUGAUAACGAGGACCGGUACGGCCGCCACUCGAUAACAUGAGGAUCACCCAUGUAAUAAUAA", "apparent Kd", "0.161 µM"),
    ("UACUUGCUGACGGCCGCCACUAGUACAUGAGGAUCACCCAUGUACGGUCGCCCGGUGUGAUCCACUAGGACCGGGUCAGCAAGAU", "apparent Kd", "0.0383 µM"),
    ("GUGCCGCAUUCACAUGAGGAUCACCCAUGUCGAGGACCGGUACGGCCGCCACUCGACGUGCUUACAGGUCCUUUACGGCCCAAUA", "apparent Kd", "0.0381 µM"),
    ("GACUAUAUGAUAUGUCAGAAAUCCUCGAAACGAGGACCGGUACGGCCGCCACUCGAGUGAUAAACAUGAGGAUCACCCAUGUAAA", "apparent Kd", "0.0225 µM"),
    ("GGCACAUAGUCGGCCGCCACUAGAUUUUAGUGGAAUAACAUGAGGAUCACCCAUGUAUUUGGGACUAGGACCGGGACUAUGUGCC", "apparent Kd", "0.0328 µM"),
    ("CAAAGUUCGUCUCUGGUCCUCUAAUCGGCUCGAGGACCGGUACGGCCGCCACUCGCCCGACAUGAGGAUCACCCAUGUCUGUAAA", "apparent Kd", "0.0132 µM"),
    ("AACGUCUUGUCGGCCGCCACUGUAUGGUGCGUGACAUGAAACAUGAGGAUCACCCAUGUAGCAUGCAGGACCGGGACAGUGCCAA", "apparent Kd", "0.00984 µM"),
]
